experiment: Measurement of LogP values by HPLC on reversed phase columns (EEC directive 79/831 Annex V.A8); format: physicochemical
Marks after values point to notes of the source that are not given here.
endpoint_label: LogP

> print(dat)
                                   compound  endpoint.label   result
1  COc1ccc(Nc2nsc(C(=O)N[C@@H](C)C3CCCCC3)c2Cl)cc1 [I-068]            LogP  4.59[a]

Query LogP for COc1ccc(CNc2nsc(C(=O)Nc3cccc4c3C(C)OC4(C)C)c2Cl)cc1 (stereo not drawn) [I-869]
3.96[a]

Quick one: give measured LogP for COc1ccc(CNc2nsc(C(=O)NCc3cnccc3OC)c2Cl)cc1 [I-1330]
1.49[a]

Return LogP (reported value) for this compound: CC(c1cc(Cl)cc(Cl)c1)N(C(=O)c1cc(N)ns1)C1CC1 (stereo not drawn) [I-979]
3.19[a]

Identify the reported LogP for the following entry. Nc1cc(C(=O)NC2CCCCC2)sn1 [I-007]
1.49[a]

Give the reported LogP for this compound. COc1ccc(CNc2nsc(C(=O)NCc3cc(C(F)(F)F)cc(C(F)(F)F)c3)c2Cl)cc1 [I-1313]
4.46[a]

In one line, give reported LogP of the entry COc1ccc(CNc2nsc(C(=O)NC3CCCCC3(C)C)c2Cl)cc1 (stereo not drawn) [I-075] .
4.64[a]

Please list LogP recorded for the compound CC(C)(C)OC(=O)Nc1nsc(C(=O)NCC2CCCCC2Cl)c1F (stereo not drawn) [I-1572]
3.34[a]

// fetch LogP given entry Cc1c(N)nsc1C(=O)NCC1CCCC1O (single isomer, unassigned) [I-706]
0.79[a]

====

Entries annotated with measured LogP
assay: Measurement of LogP values by HPLC on reversed phase columns (EEC directive 79/831 Annex V.A8); format: physicochemical
Marks after values point to notes of the source that are not given here.

Reference set, count: 3
> print(dat)
                                   compound   result
1             CCOc1c(N)nsc1C(=O)NCc1ccccc1F  1.93[a]
2  CC(c1ccccc1C(F)(F)F)N(C(=O)c1snc(N)c1Cl)C1CC1 (centres unmarked)  3.13[a]
3  O=C(NCC1CCCCC1)c1snc(N(Cc2ccccc2)Cc2ccccc2)c1-c1ccc(F)cc1  6.27[a]

Hello, please tell me recorded LogP for this one: COc1ccc(CNc2nsc(C(=O)NCc3ccc(F)c(C(F)(F)F)c3)c2Cl)cc1
4.06[a]

Specify LogP for COc1ccc(CNc2nsc(C(=O)NCc3ccc(Cl)cc3C)c2Cl)cc1 and stop.
4.20[a]

State its LogP for this compound: CCC1(C)CC(NC(=O)c2snc(N)c2Cl)CC(C)(C)C1 (centres unmarked)
4.01[a]

Give me measured LogP, please, for this compound: Nc1nsc(C(=O)NC(Cc2ccccc2)C2CCCCC2)c1Cl (centres unmarked)
3.55[b]

Quick one: give measured LogP for COc1ccc(CNc2nsc(C(=O)Nc3ccc(F)cc3)c2Cl)cc1
3.76[a]

Write down LogP measured for item O=C(NCc1ncc(C(F)(F)F)cc1Cl)c1cc(N(Cc2ccccc2)Cc2ccccc2)ns1
4.98[a]

Quick one: give measured LogP for Cc1nonc1NC(=O)c1snc(N)c1Cl
1.27[a]

Let me know recorded LogP for COc1ccc(CNc2nsc(C(=O)NCCCn3cccn3)c2Cl)cc1 , thanks.
2.53[a]

Give a short answer stating reported LogP for Cc1c(N)nsc1C(=O)NCc1c(F)ccc(F)c1F .
1.49[a]

Tell me its LogP given COc1ccc(CNc2nsc(C(=O)NCC3CCCC(C(F)(F)F)C3)c2Cl)cc1 (centres unmarked) as the entry.
4.33[a]

Report LogP, nothing else, for this compound: CC(=O)Nc1nsc(C(=O)NCc2ccccc2F)c1Cl
1.70[a]

Give reported LogP value for Nc1nsc(C(=O)NOc2ccccc2)c1Cl
1.53[a]

In one line, give reported LogP of the entry C[C@H]1CCCC[C@H]1CNC(=O)c1snc(N)c1I (relative stereo) [I-1540] .
2.73[a]

====

experiment: Measurement of LogP values by HPLC on reversed phase columns (EEC directive 79/831 Annex V.A8); format: physicochemical
Marks after values point to notes of the source that are not given here.
endpoint_label: LogP

> print(dat)
                                   compound  endpoint.label   result
1   Nc1nsc(C(=O)NCc2ccc(Br)cc2)c1Cl [I-372]            LogP  2.39[a]
2      Nc1nsc(C(=O)NCCC2CCCCC2)c1Cl [I-850]            LogP  2.92[a]
3  Cc1ccc(CN(C(=O)c2snc(N)c2Cl)C2CC2)c(C)c1 [I-152]            LogP  3.09[a]
4  COc1ccc(CNc2nsc(C(=O)N(C3CC3)C(C)c3ccccc3)c2Cl)cc1 (stereo not shown) [I-873]            LogP  4.17[a]
5  CC1CCCC(NC(=O)c2snc(N)c2Cl)C1 (stereo not shown) [I-1563]            LogP  2.37[a]

Now for another entry.
Look up LogP of Cc1cc(C)c(CN(C(=O)c2cc(N(Cc3ccccc3)Cc3ccccc3)ns2)C2CC2)c(C)c1 [I-907] and report it.
6.25[a]

====

Measured LogP by item
experiment: Measurement of LogP values by HPLC on reversed phase columns (EEC directive 79/831 Annex V.A8); type: physicochemical
Marks after values point to notes of the source that are not given here.

Below: 8 compounds and their reported LogP.
> print(dat)
                                   compound   result
1    Nc1nsc(C(=O)N(Cc2cc(F)ccc2F)C2CC2)c1Cl  2.57[a]
2  COc1ccc(CNc2nsc(C(=O)NCc3cc(C)ccc3C3(C)CC3)c2Cl)cc1  4.92[a]
3  O=C(NCc1cccc(Cl)c1Cl)c1cc(N(Cc2ccccc2)Cc2ccccc2)ns1  5.01[a]
4  COc1ccc(CNc2nsc(C(=O)NC(C)c3ccc(Br)cc3)c2Cl)cc1 (stereo not shown)  4.23[a]
5  COc1ccc(CNc2nsc(C(=O)NCc3cnn(CC(C)C)c3C)c2Cl)cc1  3.21[a]
6  COc1ccc(CNc2nsc(C(=O)NC3CCCc4cc(C(C)(C)C)ccc43)c2Cl)cc1 (stereo not shown)  5.46[a]
7  Nc1nsc(C(=O)NCC2CCC(O)C2)c1Cl (stereo not shown)  0.72[a]
8                  CC(C)CNC(=O)c1snc(N)c1Cl  1.55[a]

Name the recorded LogP of the item C#CCOC(=O)Nc1nsc(C(=O)N[C@@H](C)C2CCCCC2)c1Cl in your answer.
3.17[a]

Specify measured LogP for O=C(NCc1cccc(Cl)c1)c1cc(N(Cc2ccccc2)Cc2ccccc2)ns1 .
4.71[a]

Supply LogP value. Item: C[C@H](NC(=O)c1snc(N(S(C)(=O)=O)S(C)(=O)=O)c1Cl)C1CCCCC1
3.76[a]

Tell me measured LogP for Cn1cc(CNC(=O)c2snc(N)c2Cl)cn1 please.
0.59[a]

Name the recorded LogP of the item COc1ccc(CNc2nsc(C(=O)NC(C)(C)c3nc(C)cs3)c2Cl)cc1 in your answer.
3.63[a]

Return value of LogP for input CCC(c1ccccc1)N(C(=O)c1snc(N)c1Cl)C1CC1 (stereo not shown) , no commentary.
3.11[a]

Determine its reported LogP: COc1ccc(CNc2nsc(C(=O)NCc3ccc(F)cc3C(F)(F)F)c2Cl)cc1
4.18[a]

For the compound COc1ccc(CNc2nsc(C(=O)NCc3ccc(Cl)c(OC)c3)c2Cl)cc1 , give its measured LogP value.
3.76[a]

Look up LogP of C#CCNc1nsc(C(=O)NCc2ccc(Cl)cc2)c1Cl and report it.
2.97[a]

====

experiment: Measurement of LogP values by HPLC on reversed phase columns (EEC directive 79/831 Annex V.A8); type: physicochemical
# LogP [a] annotations

Some compounds with recorded LogP [a]:
> print(dat)
                                   compound  endpoint.label    result
1  COc1ccc(CNc2nsc(C(=O)N3CCCc4cccc(C)c43)c2Cl)cc1        LogP [a]      4.24
2  O=C(NC1CCCC2CCCCC21)c1snc(N=CN2CCCC2)c1Cl (stereo not drawn) [II-037]        LogP [a]  3.83^[a]

Output measured LogP [a] for this item: CCOC(=O)c1snc(NC(=O)c2ccc(F)cc2)c1Cl
2.62^[a]

Complete the entry with LogP [a] for CON(C(=O)c1snc(Cl)c1Cl)C(C)C1CCCCC1 (stereo not drawn)
5.27

Read off the recorded LogP [a] for COc1ccc(CNc2nsc(C(=O)N3CCc4c(Cl)cccc4C3)c2Cl)cc1
4.20^[a]

Fill in LogP [a] for record O=C(Nc1nscc1Cl)c1ccc(F)cc1
1.74^[a]

Quick one: give measured LogP [a] for CS(C)=Nc1nsc(C(=O)NCc2ccc(F)cc2F)c1F
1.30^[a]

Dear colleague, please send me the reported LogP [a] for C[C@H](NC(=O)c1snc(N=C(c2ccccc2)c2ccccc2)c1Cl)C1CCCCC1 when you can.
5.93^[a]

Item O=C(NCC1CCOCC1)c1snc(N=C(c2ccccc2)c2ccccc2)c1Cl : provide LogP [a]
3.60^[a]

State its LogP [a] for this compound: CS(Cc1ccccc1Cl)=Nc1nsc(C(=O)NCC2CCCCC2)c1Cl (stereo not drawn)
3.61^[a]

Read the entry CS(C)=Nc1nsc(C(=O)NCc2cc(F)c(F)c(F)c2)c1Cl and write its reported LogP [a].
1.68^[a]

Please give the documented LogP [a] of CCS(C)=Nc1nsc(C(=O)NCC2CCCCC2)c1Cl (stereo not drawn)
1.94^[a]

Supply recorded LogP [a] for CCCS(CC)=Nc1nsc(C(=O)NCC2CCCCC2)c1F (stereo not drawn) here.
2.07^[a]

Quick one: give measured LogP [a] for Cc1ccc(S(C)=Nc2nsc(C(=O)NCC3CCCCC3)c2Cl)cc1 (stereo not drawn)
3.51^[a]

Provide only the value of recorded LogP [a] for Cc1ccc(S(C)=Nc2nsc(C(=O)NCc3ccc(F)c(F)c3F)c2F)cc1 (stereo not drawn)
2.73^[a]

Output measured LogP [a] for this item: C[C@H](NC(=O)c1snc(NS(=O)(=O)c2ccccc2)c1Cl)C1CCCCC1
3.75^[a]

Determine from records and report LogP [a] for Cc1ccc(S(C)=Nc2nsc(C(=O)NCc3cc(F)c(F)cc3F)c2F)cc1 (stereo not drawn)
2.87^[a]
